System: HEK-293T
protocol-text: Multiplex assay against HEK293T
Format: toxicity, cell-based
condition-label: human, 48 h, 1 µM, compound concentration 1 uM, replicate 2
Listed here are compounds together with their documented Population Mitotic Cells (%).
readout-type: Population Mitotic Cells (%)

mol: O=C(CCCc1ccccc1)Nc1nc2ccccc2c(=O)s1
measured-on: HEK-293T
result: 61%
--
mol: CC(=O)Nc1cccc2c1c(Sc1ccc(Cl)cc1)c(C)n2CC(=O)O
measured-on: HEK-293T
result: 61%
--
mol: CCc1cc2cc(NS(=O)(=O)c3ccc(C#N)cc3)ccc2n(CC)c1=O
measured-on: HEK-293T
result: 61%
--
mol: CCCOc1ccc2[nH]cc(C3=CCNCC3)c2n1.Cl
measured-on: HEK-293T
result: 61%
--
mol: CN[C@@H](C)C(=O)N[C@H](C(=O)N1CCC[C@H]1C(=O)Nc1snnc1-c1ccccc1)C1CCCCC1
measured-on: HEK-293T
result: 60%
--
mol: COc1ccccc1N1CCN(C[C@@H](C(=O)NC(C)(C)C)c2ccccc2)CC1.Cl.Cl
measured-on: HEK-293T
result: 61%
